meta.source: paper PMC11024016

Assay: Pharmacokinetics of total topotecan in plasma, tumor and BM-ISF of ES-2 tumor bearing mice
Format: in vivo, BALB/c nude mice
Details: BALB/c nude, mouse, iv, plasma, single i.v. 2 mg/kg, ES-2 tumor bearing mice
EXPERIMENTAL_ENDPOINT: MRT
Output should be the measured figure followed by the unit it is expressed in.

Ask: MRT lookup needed for CC[C@@]1(O)C(=O)OCc2c1cc1n(c2=O)Cc2cc3c(CN(C)C)c(O)ccc3nc2-1 [TPT, Topotecan] , thanks.
Reply: 23.3 min

----------
Experiment: Pharmacokinetics of total topotecan in plasma, tumor and BM-ISF of ES-2 tumor bearing mice
Assay type: in vivo, BALB/c nude mice
Conditions: BALB/c nude, mouse, iv, plasma, single i.v. 2 mg/kg, ES-2 tumor bearing mice
Protocol: Sucrose/histidine buffer and saline (Otsuka Pharmaceutical Factory, Tokushima, Japan) were used as the diluent for FF-10850 and TPT, respectively. […] To prepare the samples, methanol with 0.1% formic acid plus topotecan-d6 was added to plasma samples, while methanol with 0.1% formic acid was used for tumor and BM-ISF samples. […] Quantification was performed using MRM with the transitions of m/z at 422.0 → 377.1 for topotecan and 428.1 → 377.1 for topotecan-d6. […]
EXPERIMENTAL_ENDPOINT: Vd (L/kg)
Give the value, in units of L/kg, as a plain number.

Ask: Vd lookup needed for CC[C@@]1(O)C(=O)OCc2c1cc1n(c2=O)Cc2cc3c(CN(C)C)c(O)ccc3nc2-1 , thanks.
Reply: 5.87

----------
Experiment: Pharmacokinetics of total topotecan in plasma, tumor and BM-ISF of ES-2 tumor bearing mice
Format: in vivo, BALB/c nude mice
Details: BALB/c nude, mouse, iv, plasma, single i.v. 2 mg/kg, ES-2 tumor bearing mice
EXPERIMENTAL_ENDPOINT: half-life (min)
Give the value, in units of min, as a plain number.

Ask: half-life lookup needed for CC[C@@]1(O)C(=O)OCc2c1cc1n(c2=O)Cc2cc3c(CN(C)C)c(O)ccc3nc2-1 [TPT, Topotecan] , thanks.
Reply: 23.9

----------
Assay: Pharmacokinetics of unencapsulated topotecan in plasma, tumor and BM-ISF of ES-2 tumor bearing mice
Assay type: in vivo, BALB/c nude mice
Conditions: BALB/c nude, mouse, iv; unencapsulated topotecan, plasma, single i.v. 2 mg/kg, ES-2 tumor bearing mice
EXPERIMENTAL_ENDPOINT: AUC(0-inf) (ng·h/mL)
Give the value, in units of ng·h/mL, as a plain number.

Ask: AUC(0-inf) lookup needed for CC[C@@]1(O)C(=O)OCc2c1cc1n(c2=O)Cc2cc3c(CN(C)C)c(O)ccc3nc2-1 , thanks.
Reply: 97.3

----------
Test: Pharmacokinetics of unencapsulated topotecan in plasma, tumor and BM-ISF of ES-2 tumor bearing mice
Format: in vivo, BALB/c nude mice
Details: BALB/c nude, mouse, iv; unencapsulated topotecan, BM-ISF, single i.v. 2 mg/kg, ES-2 tumor bearing mice
EXPERIMENTAL_ENDPOINT: half-life (min)
Give the value, in units of min, as a plain number.

Ask: half-life lookup needed for CC[C@@]1(O)C(=O)OCc2c1cc1n(c2=O)Cc2cc3c(CN(C)C)c(O)ccc3nc2-1 , thanks.
Reply: 43.7

----------
Assay: Pharmacokinetics of total topotecan in plasma, tumor and BM-ISF of ES-2 tumor bearing mice
Format: in vivo, BALB/c nude mice
Conditions: BALB/c nude, mouse, iv, plasma, single i.v. 2 mg/kg, ES-2 tumor bearing mice
EXPERIMENTAL_ENDPOINT: AUC(0-inf) (ng·h/mL)
Give the value, in units of ng·h/mL, as a plain number.

Ask: AUC(0-inf) lookup needed for CC[C@@]1(O)C(=O)OCc2c1cc1n(c2=O)Cc2cc3c(CN(C)C)c(O)ccc3nc2-1 [TPT, Topotecan] , thanks.
Reply: 140
